System: AlDH of bacterial sources
Assay details: Screening of tryptophan metabolites for inhibition of bacterial AlDH activity in vitro
Type: biochemical
Reported conditions: 100 μM concentration, in vitro
Reported % inhibition of AlDH activity values follow for various compounds
Express the result in % but write the number alone.

{"Compound": "O=C(O)CCCC(=O)C(=O)O [α-ketoadipic acid]", "Target or test system": "AlDH of bacterial sources", "Units symbol": "%", "% inhibition of AlDH activity": 1}
{"Compound": "Nc1c(O)cccc1C(=O)O [3-hydroxyanthranilic acid]", "Target or test system": "AlDH of bacterial sources", "Units symbol": "%", "% inhibition of AlDH activity": 97}

[Q] Request the reported % inhibition of AlDH activity associated with O=C(O)Cc1c[nH]c2ccc(O)cc12 [5-hydroxyindol-3-ylacetic acid]
[A] 4
